Values were extracted from patent US12371428B2.

# Subject Of Test: Mer (phospho-Mer, MERTK-transfected 293A cells) (Homo sapiens (Human))
# Sequence (Q12866 21-999): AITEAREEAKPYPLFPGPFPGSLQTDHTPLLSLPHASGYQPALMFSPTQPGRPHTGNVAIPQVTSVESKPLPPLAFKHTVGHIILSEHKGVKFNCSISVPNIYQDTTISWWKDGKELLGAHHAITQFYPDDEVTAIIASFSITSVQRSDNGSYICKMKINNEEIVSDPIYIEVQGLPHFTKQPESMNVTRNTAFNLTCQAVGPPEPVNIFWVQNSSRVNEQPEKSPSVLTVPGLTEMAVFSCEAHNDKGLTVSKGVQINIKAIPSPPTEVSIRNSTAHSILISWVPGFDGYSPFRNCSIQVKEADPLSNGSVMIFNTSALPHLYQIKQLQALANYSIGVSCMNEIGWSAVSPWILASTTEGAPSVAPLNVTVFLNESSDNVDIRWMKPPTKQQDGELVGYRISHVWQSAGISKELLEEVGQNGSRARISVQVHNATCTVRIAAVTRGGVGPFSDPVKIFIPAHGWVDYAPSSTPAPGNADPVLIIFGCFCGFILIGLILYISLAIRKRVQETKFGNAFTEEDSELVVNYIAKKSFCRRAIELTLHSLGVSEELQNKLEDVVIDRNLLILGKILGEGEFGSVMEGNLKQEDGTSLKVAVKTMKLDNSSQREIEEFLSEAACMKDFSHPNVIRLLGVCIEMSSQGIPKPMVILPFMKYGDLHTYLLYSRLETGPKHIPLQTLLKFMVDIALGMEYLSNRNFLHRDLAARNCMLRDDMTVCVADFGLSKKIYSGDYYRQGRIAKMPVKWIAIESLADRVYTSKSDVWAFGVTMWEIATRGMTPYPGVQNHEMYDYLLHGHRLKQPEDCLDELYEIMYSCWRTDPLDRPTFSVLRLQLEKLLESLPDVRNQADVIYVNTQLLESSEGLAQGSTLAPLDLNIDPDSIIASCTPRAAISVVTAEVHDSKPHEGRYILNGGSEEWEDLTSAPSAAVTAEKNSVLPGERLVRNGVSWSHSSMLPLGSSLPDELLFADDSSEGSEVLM
# Experiment: Mer autophosphorylation ELISA in transient transfected 293A cells (Example H)
# Format: cell-based
# Condition Label: cellular activity; Mer autophosphorylation ELISA in transient transfected 293A cells
Where a name gives a salt, the structure may show the parent alone.
# key: entry, value: IC50

Solved entries (count: 5):
COc1cc2nccc(Oc3ccc(NC(=O)c4c(C)c(C)c(C)n(-c5ccccc5)c4=O)cc3F)c2nc1OC :: < 100 nM
COCCOc1nc2c(Oc3ccc(NC(=O)c4cnc(C)c(-c5ccc(F)cc5)c4O)cc3)ccnc2cc1C :: < 100 nM
COc1cc2nccc(Oc3ccc(NC(=O)c4cn(C(C)(C)C)cc(-c5ccc(F)cc5)c4=O)cc3F)c2nc1OC :: < 100 nM
COc1cc2nccc(Oc3ccc(NC(=O)c4cnc(COC(C)=O)c(-c5ccc(F)cc5)c4O)cc3F)c2nc1OC :: < 100 nM
COc1cc2nccc(Oc3ccc(NC(=O)c4cn(C)c(C)c(-c5ccccc5)c4=O)cc3F)c2nc1OC [Compound 36, hydrochloride] :: < 100 nM

Give the value of IC50 reported for the following: `COc1ccc2nccc(Oc3ccc(NC(=O)c4cn(C5CC5)c(C)c(-c5ccc(F)cc5)c4=O)cc3F)c2n1` < 100 nM

Give the value of IC50 reported for the following: `COc1cnc2c(Oc3ccc(NC(=O)c4c(C)nc(C)n(-c5ccc(F)cc5)c4=O)cc3F)ccnc2c1` < 100 nM

---

# Subject Of Test: Human MET (residues 956-1390) (Homo sapiens (Human))
# Sequence (P08581 956-1390): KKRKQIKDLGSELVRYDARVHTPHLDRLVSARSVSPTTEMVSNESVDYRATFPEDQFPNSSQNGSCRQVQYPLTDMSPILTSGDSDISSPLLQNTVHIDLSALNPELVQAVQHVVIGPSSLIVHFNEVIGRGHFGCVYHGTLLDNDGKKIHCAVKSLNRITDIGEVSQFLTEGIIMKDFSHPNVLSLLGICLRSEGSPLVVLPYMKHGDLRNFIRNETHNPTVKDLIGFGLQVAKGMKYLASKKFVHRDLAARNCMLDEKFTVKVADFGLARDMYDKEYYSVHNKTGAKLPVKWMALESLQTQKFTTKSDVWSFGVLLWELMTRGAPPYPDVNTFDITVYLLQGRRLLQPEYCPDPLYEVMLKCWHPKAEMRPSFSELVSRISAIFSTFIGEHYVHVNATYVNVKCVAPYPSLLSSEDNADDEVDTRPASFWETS
# Experiment: Human Met kinase assay, HTRF KinEase (Example D-2)
# Assay type: biochemical
# Condition Label: protocol of Example D-2; read-out: c-Met IC50
pIC50: −log10 of the molar value. Counter-ions that a name gives are not always drawn.
Measurement Label: pIC50

Solved entries (count: 3):
COc1nc2c(Oc3ccc(NC(=O)c4cn(C(C)C)c(C)c(-c5ccc(F)cc5)c4=O)cc3F)ccnc2cc1-c1cccnc1 [Compound 606, hydrochloride] :: > 7.00
Cc1nc2c(Oc3ccc(NC(=O)c4cn(C(C)C)c(C)c(-c5ccc(F)cc5)c4=O)cc3F)ccnc2cc1-c1cnn(C(F)F)c1 [Compound 614, hydrochloride] :: > 7.00
COCCOc1cnc2c(Oc3ccc(NC(=O)c4c(C)nc(C)c(-c5ccc(F)cc5)c4O)cc3F)ccnc2c1 [Compound 555] :: > 7.00

Give the value of pIC50 reported for the following: COc1nc2c(Oc3ccc(NC(=O)c4c(C)nc(C)c(-c5ccc(F)cc5)c4O)cc3F)ccnc2cc1C [Compound 459] 6.52 to 7.00

Give the value of pIC50 reported for the following: COc1cc2nccc(Oc3ccc(NC(=O)c4cc(C)nn(-c5ccc(F)cc5)c4=O)cc3F)c2nc1OC [Compound 519] 6.52 to 7.00

Give the value of pIC50 reported for the following: CCn1nc(C(=O)Nc2ccc(Oc3ccnc4cc(OC)c(OC)nc34)c(F)c2)c(=O)c(-c2ccc(F)cc2)c1C [Compound 568] > 7.00

---

# Subject Of Test: AXL (phospho-AXL, Gas6-stimulated A-172 glioblastoma cells) (Homo sapiens (Human), UniProt P30530)
# Sequence (P30530 26-894): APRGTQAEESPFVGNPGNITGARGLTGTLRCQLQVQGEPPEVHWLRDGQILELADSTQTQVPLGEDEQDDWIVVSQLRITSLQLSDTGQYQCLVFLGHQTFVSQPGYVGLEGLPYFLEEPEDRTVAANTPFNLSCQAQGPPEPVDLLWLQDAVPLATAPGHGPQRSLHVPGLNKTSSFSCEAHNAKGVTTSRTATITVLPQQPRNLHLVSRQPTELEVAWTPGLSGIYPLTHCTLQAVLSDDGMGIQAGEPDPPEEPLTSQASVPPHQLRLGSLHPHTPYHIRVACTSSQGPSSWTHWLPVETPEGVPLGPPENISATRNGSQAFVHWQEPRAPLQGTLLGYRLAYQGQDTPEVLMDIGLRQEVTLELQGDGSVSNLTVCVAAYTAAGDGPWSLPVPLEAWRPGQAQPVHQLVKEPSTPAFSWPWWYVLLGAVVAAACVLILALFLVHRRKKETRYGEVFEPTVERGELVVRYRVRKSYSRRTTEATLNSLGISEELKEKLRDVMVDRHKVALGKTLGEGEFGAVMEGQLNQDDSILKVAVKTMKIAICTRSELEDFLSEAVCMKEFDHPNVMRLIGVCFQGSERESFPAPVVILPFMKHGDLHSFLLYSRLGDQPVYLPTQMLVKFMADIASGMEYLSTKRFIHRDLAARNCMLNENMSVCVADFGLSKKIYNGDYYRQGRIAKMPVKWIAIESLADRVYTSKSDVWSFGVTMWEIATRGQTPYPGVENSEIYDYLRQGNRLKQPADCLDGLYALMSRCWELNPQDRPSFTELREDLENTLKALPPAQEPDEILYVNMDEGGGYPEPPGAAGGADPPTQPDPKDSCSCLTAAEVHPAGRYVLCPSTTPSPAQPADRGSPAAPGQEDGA
# Experiment: AXL autophosphorylation ELISA in A-172 cells (Example E)
# Assay type: cell-based
Measurement Label: IC50

Give the value of IC50 reported for the following: `COc1cc2nccc(Oc3ccc(NC(=O)c4c(C)c(C(C)=O)c(C)n(-c5ccc(F)cc5)c4=O)cc3F)c2nc1OC` < 0.1 µM

Give the value of IC50 reported for the following: `COc1cc2nccc(Oc3ccc(NC(=O)c4c(C)n(C)nc(-c5ccc(F)cc5C)c4=O)cc3F)c2nc1OC` < 0.1 µM
